- Test system: NCI-H460 lung
- protocol_summary: NCI tumour cell line growth inhibition, 48 h
Measured TGI, listed per entry for reference.

Entry COc1cc2cc(C(=O)N3CC(CCl)c4c3cc(NC(=O)OCc3ccc([N+](=O)[O-])cc3)c3ccccc43)[nH]c2c(OC)c1OC (centres undefined) , TGI reported as > 39.1 µM

Documented TGI of CSC1C(=O)Nc2ccc3ccccc3c21 (centres undefined) : > 100 µM

Value of TGI reported for the compound O=C(CCC(=O)Nc1ccc(Cl)c(Cl)c1)CC(=O)c1ccc(F)cc1 is > 100 µM

Summary for this compound, COC(=O)C1C=CCON2CCc3c(n(C)c4ccccc34)C12 (centres undefined) : TGI is > 100 µM

* * *

- Test system: OVCAR-3 ovarian
- protocol_summary: NCI tumour cell line growth inhibition, 48 h; in the data active means GI50 below about 0.43 µM; inactive means the rest
Use one of these outcomes when replying: 1.0 (active), 0.0 (inactive)

// known answers, use as guide
{"compound": "Clc1ccc(-c2csc(Nc3cccc(-c4csc(-c5ccccc5)n4)c3)n2)cc1", "test_system": "OVCAR-3 ovarian", "qualitative_label": 0.0}
{"compound": "CC(C)N1CCN(Cc2ccc3c(NNC(=O)c4ccccc4)nc4cc(F)ccc4n23)CC1", "test_system": "OVCAR-3 ovarian", "qualitative_label": 1.0}
{"compound": "CCN(Cc1ccc(F)cc1)c1ccc(CO)c(C)c1", "test_system": "OVCAR-3 ovarian", "qualitative_label": 0.0}

For Oc1ccc(-c2nc3ccc4[nH]ncc4c3c3c2CCCC3)c(F)c1 , which call appears in the assay record?
0.0

* * *

- Tested on: K-562 leukemia
- protocol_summary: NCI tumour cell line growth inhibition, 48 h; in the data active = GI50 below about 0.43 µM; inactive = the rest
Choose one outcome from this list and give only that: active, inactive

{"molecule": "C=C1C(=O)O[C@H]2[C@H]1CC/C(COC(=O)CCSCCC(=O)OC/C1=C/CC[C@@]3(C)O[C@H]3[C@H]3OC(=O)C(=C)[C@@H]3CC1)=C\\CC[C@@]1(C)O[C@@H]21", "qualitative_label": "active"}
{"molecule": "COc1ccc(S(=O)(=O)NC2=NCCN2C(=S)SN2CCn3c2nsc3=S)cc1", "qualitative_label": "inactive"}
{"molecule": "CCN1C(=O)CCCc2c1ccc(Nc1ncc(Cl)c(NC3[C@@H](C(N)=O)[C@@H]4C=C[C@H]3C4)n1)c2OC (some centres undefined)", "qualitative_label": "inactive"}

Record lookup: outcome of this test for Oc1ccc(O)c(-c2cc(-c3ccc(Cl)cc3)nn2-c2ccccc2)c1 ?
inactive

* * *

- Tested on: COLO 205 colon
- protocol_summary: NCI tumour cell line growth inhibition, 48 h
TGI for assorted compounds

Sample records with TGI:
{"compound": "COc1cc(O)c2c(=O)c3c(C)cccc3n(C)c2c1", "TGI": "> 10 µM"}
{"compound": "COC1CC(OC2C(C)OC(OC3C(C)OC(OC4C(O)CC(O[C@H]5CC[C@@]6(C)C(=CC[C@]7(O)[C@@H]6C[C@@H](OC(C)=O)[C@@]6(C)[C@]7(O)CC[C@@]6(O)C(C)=O)C5)OC4C)CC3OC)CC2OC)OC(C)C1O (stereo partly drawn)", "TGI": "> 12.5 µM"}

# input for lookup
Briefly, TGI measured for CCCCCCNC(=O)Oc1ccc(/C(=C(/C)Cc2ccc(OC)cc2)c2ccc(OCCCN(C)C)cc2)cc1 : 29.7 µM

* * *

- Test system: SNB-19 CNS
- protocol_summary: NCI tumour cell line growth inhibition, 48 h; in the data active = GI50 below about 0.43 µM; inactive = the rest
I would appreciate it if you answered using one of these outcomes: t = active, f = inactive

Example entries begin here.
{"compound": "COC1=C(C)C(=O)c2c(c(CCCl)c3n2CCC3O)C1=O (centres undefined)", "qualitative_label": "t"}
{"compound": "COc1cccc(/C=N/NC(=S)NC2CC3CCC2C3)c1O (centres undefined)", "qualitative_label": "f"}
{"compound": "COc1ccc(C(c2ccc(OCCN(C)C)cc2)c2cc3ccccc3c3ccccc23)cc1 (centres undefined)", "qualitative_label": "f"}

// switching to the query compound
Record request — test call for CCN1C(=O)CCCc2c1ccc(Nc1ncc(Cl)c(NC3[C@@H](C(N)=O)[C@@H]4C=C[C@H]3C4)n1)c2OC (some centres undefined)
f

* * *

- Test system: A498 renal
- protocol_summary: NCI tumour cell line growth inhibition, 48 h; in the data active means GI50 below about 0.43 µM; inactive means the rest
Please reply with one of these outcomes: active, inactive

Each molecule tested received a call. Report the one for COC1=C(C)C(=O)c2c(c(CCCl)c3n2CCC3O)C1=O (stereo unspecified) .
active

Check the results log: what was the call for Clc1ccc(-c2csc(Nc3cccc(-c4csc(-c5ccccc5)n4)c3)n2)cc1 ?
inactive

Hi, do you know how Nc1nc(N)c(C=Nc2ccc(Br)cc2)c(Nc2ccc(Br)cc2)n1 came out in this test?
inactive

So what was the verdict on CN(Cc1cccc(F)c1)c1ccc(CO)c(Cl)c1 in this test?
active

Hello, I am checking results. What call was entered for N#Cc1c(Br)n(C2OC(CO)C(O)C2O)c2ncnc(N)c12 (stereo unspecified) ?
inactive

So what was the verdict on C=C1C(=O)O[C@H]2[C@H]1CC/C(COC(=O)CCSCCC(=O)OC/C1=C/CC[C@@]3(C)O[C@H]3[C@H]3OC(=O)C(=C)[C@@H]3CC1)=C\CC[C@@]1(C)O[C@@H]21 in this test?
inactive

* * *

- Test system: U251 CNS
- protocol_summary: NCI tumour cell line growth inhibition, 48 h
measure: TGI

{"smiles_str": "S=c1nc(COc2ccc(Cl)cc2Cl)[nH][nH]1", "test_system": "U251 CNS", "TGI": "> 100 µM"}
{"smiles_str": "COc1ccc(NC(=O)CC(=O)n2nc(C)c(N=Nc3cccc(C)c3)c2C)cc1", "test_system": "U251 CNS", "TGI": "> 100 µM"}

Alright, here's another molecule for you.
Observed TGI on U251 CNS, entry O=c1cc(-c2c[nH]c3ccccc23)[nH]c2cc3c(cc12)OCO3 , equals > 100 µM

* * *

- System: MDA-MB-435
- protocol_summary: NCI tumour cell line growth inhibition, 48 h
Entries and their TGI

Example results:
{"molecule": "NC1=NC(c2ccc(Cl)cc2)N(c2ccc(S(N)(=O)=O)cc2)C(N)=N1 (stereo unspecified)", "TGI": "> 100 µM"}
{"molecule": "c1ccc(CN[C@]23C4C5CC6C7C5C2C7[C@@](NCc2ccccc2)(C64)N3Cc2ccccc2)cc1 (stereo partly specified)", "TGI": "> 100 µM"}
{"molecule": "COC(OC)C1OCC(n2cc(F)c(=O)[nH]c2=O)C1O (stereo unspecified)", "TGI": "> 100 µM"}
{"molecule": "Cc1ccc2c(=O)c(C(=O)Nn3c(C)csc3=S)c[nH]c2n1", "TGI": "> 100 µM"}
{"molecule": "CN(C)c1ccc(C=C2C(=O)N(c3ccccc3)N(c3ccccc3)C2=O)cc1", "TGI": "> 100 µM"}

Consider now this further molecule.
What the record says about N#Cc1c(Br)n(C2OC(CO)C(O)C2O)c2ncnc(N)c12 (stereo unspecified) : TGI is > 46.2 µM

* * *

- System: MDA-MB-435
measure: GI50

{"smiles_str": "O=C(CN1CCN(c2cc3c(cc2F)c(=O)c(C(=O)O)cn3C2CC2)CC1)Nc1nc(-c2ccc(Cl)cc2)cs1", "GI50": "3.85 µM"}

Measured GI50 for this entry CCOC(=O)c1c(Br)c(-c2ccc(OC)cc2)c(Br)n1C on MDA-MB-435: 4.47 µM

Tested on MDA-MB-435, the item Cc1ccc(-c2c3c(nn2-c2ccc(S(N)(=O)=O)cc2)-c2ccccc2C3)cc1 showed GI50 equal to 18.2 µM

* * *

The reader will find reported TGI values listed item by item below.
- Test system: OVCAR-5 ovarian
- protocol_summary: NCI tumour cell line growth inhibition, 48 h

Sample answers from the record:
{"compound": "O=C(O)C[C@@H]1[C@@H](O)[C@@H](O)CN2C(=O)c3ccccc3[C@H]12", "TGI": "> 100 µM"}
{"compound": "CC(=O)OC1C(C)OC(OC(=O)C2CCC3C(C2)OC2(CC(OC(=O)/C=C/c4ccccc4)C(C)CO2)C32CO2)C(OC2OC(C)C(O)C(OC(C)=O)C2O)C1O (stereo not drawn)", "TGI": "0.0407 µM"}
{"compound": "CCOc1cc(Br)c(C(C)NC(=O)c2cccc(OC)c2)cc1OCC (stereo not drawn)", "TGI": "> 100 µM"}
{"compound": "Cc1cc2cc3ccc(N(C)C)cc3nc2cc1N", "TGI": "6.55 µM"}
{"compound": "Nc1cc(O)ccc1N=Nc1ccc(-c2nc3ccccc3[nH]2)cc1", "TGI": "> 100 µM"}

The reported value for Cc1c(-c2ccccc2)nn2cc(-c3ccccc3)nnc12 in terms of TGI is > 100 µM

Per the record, CC(C)(C)c1ccc(OC(=O)Nc2ccc(O)c(C(=O)O)c2)cc1 has TGI of > 100 µM

Lookup result for COc1ccc(/C=C/C(=O)c2cc(C(C)(C)C)c(O)c(C(C)(C)C)c2)cc1OC ; measured TGI: > 85.8 µM
